- protocol: Food effect on Compound I pharmacokinetics (fed vs fasted, light or high-fat breakfast)
- Type: in vivo, human
- measurement-conditions: human, plasma, oral, 100 mg, 100 mg fed, high-fat breakfast, N = 12; read-out: AUCinf GLSM
measured-metric: AUC(0-inf) (ng·h/mL)
Just the number in ng·h/mL, nothing appended.

The measured AUC(0-inf) associated with COC[C@H]1C[C@@H](c2ncc(-c3ccc4c(c3)COc3cc5c(ccc6nc([C@@H]7CC[C@H](C)N7C(=O)[C@@H](NC(=O)OC)C(C)C)[nH]c65)cc3-4)[nH]2)N(C(=O)[C@H](NC(=O)OC)c2ccccc2)C1 reads 3270

----------
- protocol: Pharmacokinetics of Compound I after single and multiple oral doses of solid dispersion tablets
- Format: in vivo, human
- measurement-conditions: human, in vivo, 450 mg
measured-metric: AUC(0-inf)
Number plus unit, in that order.

The measured AUC(0-inf) associated with COC[C@H]1C[C@@H](c2ncc(-c3ccc4c(c3)COc3cc5c(ccc6nc([C@@H]7CC[C@H](C)N7C(=O)[C@@H](NC(=O)OC)C(C)C)[nH]c65)cc3-4)[nH]2)N(C(=O)[C@H](NC(=O)OC)c2ccccc2)C1 reads 9580 ng·h/mL

----------
- protocol: Pharmacokinetics of Compound I after single and multiple oral doses of solid dispersion tablets
- Type: in vivo, human
- measurement-conditions: human, in vivo, 50 mg
- Method: The Compound I formulation is prepared as described above by combining Compound I amorphous free base in a 1:1 ratio by mass with copovidone, which is all dissolved in ethanol and spray dried to produce the Compound I solid dispersion. The Compound I solid dispersion is then mixed with various excipients in a dry granulation process to produce tablets that are film coated prior to packaging. 5 mg, 25 mg, 50 mg, and 100 mg tablet formulations were prepared according to Tables 1A and 1B).
measured-metric: AUC(0-inf) (ng·h/mL)
Just the number in ng·h/mL, nothing appended.

The measured AUC(0-inf) associated with COC[C@H]1C[C@@H](c2ncc(-c3ccc4c(c3)COc3cc5c(ccc6nc([C@@H]7CC[C@H](C)N7C(=O)[C@@H](NC(=O)OC)C(C)C)[nH]c65)cc3-4)[nH]2)N(C(=O)[C@H](NC(=O)OC)c2ccccc2)C1 reads 3020

----------
- protocol: Pharmacokinetics of Compound I after single and multiple oral doses of solid dispersion tablets
- Assay type: in vivo, human
- measurement-conditions: human, in vivo, 450 mg, Cmax
measured-metric: Cmax (ng/mL)
Just the number in ng/mL, nothing appended.

The measured Cmax associated with COC[C@H]1C[C@@H](c2ncc(-c3ccc4c(c3)COc3cc5c(ccc6nc([C@@H]7CC[C@H](C)N7C(=O)[C@@H](NC(=O)OC)C(C)C)[nH]c65)cc3-4)[nH]2)N(C(=O)[C@H](NC(=O)OC)c2ccccc2)C1 reads 1120

----------
- protocol: Food effect on Compound I pharmacokinetics (fed vs fasted, light or high-fat breakfast)
- Format: in vivo, human
- measurement-conditions: human, plasma, oral, 100 mg, 100 mg fasted, high-fat breakfast cohort (Cohort 6), N = 12
measured-metric: Cmax

The measured Cmax associated with COC[C@H]1C[C@@H](c2ncc(-c3ccc4c(c3)COc3cc5c(ccc6nc([C@@H]7CC[C@H](C)N7C(=O)[C@@H](NC(=O)OC)C(C)C)[nH]c65)cc3-4)[nH]2)N(C(=O)[C@H](NC(=O)OC)c2ccccc2)C1 [Compound I] reads 486 ng/mL
